Structures can show the parent of a compound that is named as a salt.
// hPSC-SCs z.score.t records
Keep the answer to the number alone.

Note to self: z.score.t recorded for C=C1CC[C@H](O)C/C1=C/C=C1\CCC[C@]2(C)[C@@H]([C@H](C)CCCC(C)C)CC[C@@H]12 was 1.034

Note to self: z.score.t recorded for COc1ccc([C@@H]2CC(=O)c3c(O)cc(O[C@@H]4O[C@H](CO[C@@H]5O[C@@H](C)[C@H](O)[C@@H](O)[C@H]5O)[C@@H](O)[C@H](O)[C@H]4O)cc3O2)cc1O was 0.2399

Note to self: z.score.t recorded for CC[C@H](CC[C@@H](C)[C@H]1CC[C@H]2[C@@H]3CC=C4C[C@@H](O)CC[C@]4(C)[C@H]3CC[C@]12C)C(C)C was 0.1543

Note to self: z.score.t recorded for NCC(CC(=O)O)c1ccc(Cl)cc1 (racemic) [Baclofen (R,S)] was 1.088

Note to self: z.score.t recorded for Cc1c(Cl)cccc1Nc1ncccc1C(=O)O.NCCCC[C@H](N)C(=O)O [Clonixin Lysinate] was 0.9603

Note to self: z.score.t recorded for CC[C@]12CCCN3CCc4c(n(c5ccccc45)[C@](O)(C(=O)OC)C1)[C@@H]32 [Epivincamine] was −0.2486

Note to self: z.score.t recorded for NCC1(CC(=O)O)CCCCC1 was −0.496

Note to self: z.score.t recorded for O=C1C=C2C=C[C@@H]3C[C@@]2(O1)[C@H]1CCCCN31 was −0.9042

Note to self: z.score.t recorded for c1cncc(C2=NCCC2)c1 was 0.9865

Note to self: z.score.t recorded for C[C@@]12C(=O)OC(=O)[C@]1(C)[C@H]1CC[C@@H]2O1 was −2.175

Note to self: z.score.t recorded for CCCCc1ccc2[nH]c(NC(=O)OC)nc2c1 was −1.543

Note to self: z.score.t recorded for CCN1C[C@]2(COC)[C@H](O)C[C@H](OC)[C@@]34[C@@H]5C[C@@]6(O)[C@H](OC(=O)c7ccccc7)[C@@H]5[C@@](OC(C)=O)([C@@H]([C@H](OC)[C@H]23)[C@@H]14)[C@@H](O)[C@@H]6OC was −0.2486

Note to self: z.score.t recorded for C[C@H]1CC[C@]2(NC1)O[C@H]1C[C@H]3[C@@H]4CC[C@H]5C[C@@H](O)CC[C@]5(C)[C@H]4CC[C@]3(C)[C@H]1[C@@H]2C was −0.2904

Note to self: z.score.t recorded for CC1=CC(=O)C2=C(C)C[C@H](O)[C@@H]3[C@H](OC(=O)[C@H]3C)[C@H]12 [Austricine hydrate] was −0.411

Note to self: z.score.t recorded for C[N+](C)(C)CCCCCC[N+](C)(C)C.O.O.[Br-].[Br-] [Hexamethonium dibromide dihydrate] was 0.7913

Note to self: z.score.t recorded for COc1cc2c(cc1O)C[C@H]1c3c(cc(O)c(OC)c3-2)CCN1C was 0.767

Note to self: z.score.t recorded for C[C@]12C[C@H]3S[C@H]3C[C@@H]1CC[C@@H]1[C@@H]2CC[C@]2(C)[C@@H](O)CC[C@@H]12 [Epitiostanol] was 0.1686

Note to self: z.score.t recorded for CC[N+](C)(C)c1cccc(O)c1 [Edrophonium chloride] was 0.7913

Note to self: z.score.t recorded for CNC(=O)Oc1ccc2c(c1)[C@]1(C)CCN(C)[C@@H]1N2C.CNC(=O)Oc1ccc2c(c1)[C@]1(C)CCN(C)[C@@H]1N2C.O=S(=O)(O)O [Eserine sulfate, physostigmine sulfate] was −0.3526

Note to self: z.score.t recorded for COc1ccc2c(c1)[C@]13CCCC[C@@H]1[C@H](C2)N(C)CC3 was 1.28

Note to self: z.score.t recorded for COc1ccc2c(c1OC)C(=O)O[C@@H]2[C@H]1c2cc3c(cc2CCN1C)OCO3 [Hydrastine hydrochloride] was −0.4139

Note to self: z.score.t recorded for COc1ccc2c(c1)[nH]c1c(C)nccc12.Cl [Harmine hydrochloride] was −1.122

Note to self: z.score.t recorded for CO[C@H](C)[C@](O)(C(=O)OCC1=CCN2CC[C@H](O)[C@@H]12)C(C)C was −0.3023

Note to self: z.score.t recorded for CN(C)CCC=C1c2ccccc2CCc2ccccc21.Cl [Amitryptiline hydrochloride] was −0.7142
